# protocol_notes: Blood plasma pharmacokinetic profile of isoxazoline compounds in two chewable formulations after a single oral administration in dogs (Example 8)
# Type: in vivo
# stated_conditions: dog, plasma; beagle dogs, single oral dose 25 mg/kg, Control Chew (compound not dissolved)
readout: Tmax (h)

INSERT INTO assay_data (compound, result_value) VALUES
  ('O=C(CNC(=O)c1ccc(C2=NOC(c3cc(Cl)cc(C(F)(F)F)c3)(C(F)(F)F)C2)c2ccccc12)NCC(F)(F)F (centres unmarked)', 5),
  ('Cc1cc(C2=NOC(c3cc(Cl)cc(Cl)c3)(C(F)(F)F)C2)sc1C(=O)NCC(=O)NCC(F)(F)F (centres unmarked)', 27.5);

----------
# protocol_notes: Solubility of the active (fluralaner) in formulation solvents
# Format: physicochemical
# stated_conditions: 2-pyrrolidone (2-pyrol), organic solvent or mixture; solvent 2-pyrrolidone; read-out: solubility in 2-pyrrolidone (2-pyrol)
readout: solubility (mg/mL)

INSERT INTO assay_data (molecule, result_value) VALUES
  ('Cc1cc(C2=NOC(c3cc(Cl)cc(Cl)c3)(C(F)(F)F)C2)ccc1C(=O)NCC(=O)NCC(F)(F)F (stereo not shown)', 775);

----------
The molecules listed here are annotated with their AUC(0-t).
# protocol_notes: Blood plasma pharmacokinetic profile of isoxazoline compounds in two chewable formulations after a single oral administration in dogs (Example 8)
# Format: in vivo
# stated_conditions: dog, plasma; beagle dogs, single oral dose 25 mg/kg, Control Chew (compound not dissolved); read-out: AUC(0-168h)
readout: AUC(0-t) (µg·h/mL)

INSERT INTO measurements (molecule, readout, result_value) VALUES
  ('Cc1cc(C2=NOC(c3cc(Cl)cc(Cl)c3)(C(F)(F)F)C2)sc1C(=O)NCC(=O)NCC(F)(F)F (centres unmarked)', 'AUC(0-t)', 164),
  ('O=C(CNC(=O)c1ccc(C2=NOC(c3cc(Cl)cc(C(F)(F)F)c3)(C(F)(F)F)C2)c2ccccc12)NCC(F)(F)F (centres unmarked)', 'AUC(0-t)', 417);

----------
# protocol_notes: Blood plasma pharmacokinetic profile of isoxazoline compounds in two chewable formulations after a single oral administration in dogs (Example 8)
# Type: in vivo
# stated_conditions: dog, plasma; beagle dogs, single oral dose 10 mg/kg, Alternate Chew (compound dissolved in 2-pyrrolidone); read-out: AUC(0-168h)
readout: AUC(0-t) (µg·h/mL)

INSERT INTO measurements (compound, readout, result_value) VALUES
  ('Cc1cc(C2=NOC(c3cc(Cl)cc(Cl)c3)(C(F)(F)F)C2)sc1C(=O)NCC(=O)NCC(F)(F)F (centres unmarked) [Compound C]', 'AUC(0-t)', 327),
  ('O=C(CNC(=O)c1ccc(C2=NOC(c3cc(Cl)cc(C(F)(F)F)c3)(C(F)(F)F)C2)c2ccccc12)NCC(F)(F)F (centres unmarked) [Compound B]', 'AUC(0-t)', 334);

----------
# protocol_notes: Blood plasma pharmacokinetic profile of isoxazoline compounds in two chewable formulations after a single oral administration in dogs (Example 8)
# Type: in vivo
# stated_conditions: dog, plasma; beagle dogs, single oral dose 10 mg/kg, Alternate Chew (compound dissolved in 2-pyrrolidone)
# Source text: Pharmacokinetic Profile Following Oral Administration of Chewable Formulations of Isoxazoline Compounds The objective of this study is to compare the blood plasma pharmacokinetic profile of three different isoxazoline compounds in two different chewable formulations after a single oral (PO) administration of in dogs. The following compounds were formulated according to the invention. […] Plasma was obtained from the collected blood samples and analyzed for concentrations of the test compounds. […]
Recorded Cmax values for a group of compounds are listed next.
readout: Cmax (ng/mL)

INSERT INTO assay_data (compound, result_value) VALUES
  ('O=C(CNC(=O)c1ccc(C2=NOC(c3cc(Cl)cc(C(F)(F)F)c3)(C(F)(F)F)C2)c2ccccc12)NCC(F)(F)F (stereo not drawn)', 3210),
  ('Cc1cc(C2=NOC(c3cc(Cl)cc(Cl)c3)(C(F)(F)F)C2)sc1C(=O)NCC(=O)NCC(F)(F)F (stereo not drawn)', 2540),
  ('Cc1cc(C2=NOC(c3cc(Cl)cc(Cl)c3)(C(F)(F)F)C2)ccc1C(=O)NC1CSC1 (stereo not drawn)', 17.1);

----------
# protocol_notes: Blood plasma pharmacokinetic profile of isoxazoline compounds in two chewable formulations after a single oral administration in dogs (Example 8)
# Format: in vivo
# stated_conditions: dog, plasma; beagle dogs, single oral dose 10 mg/kg, Alternate Chew (compound dissolved in 2-pyrrolidone)
readout: Tmax (h)

INSERT INTO results (molecule, result_value) VALUES
  ('Cc1cc(C2=NOC(c3cc(Cl)cc(Cl)c3)(C(F)(F)F)C2)sc1C(=O)NCC(=O)NCC(F)(F)F (centres unmarked) [Compound C]', 15.5),
  ('O=C(CNC(=O)c1ccc(C2=NOC(c3cc(Cl)cc(C(F)(F)F)c3)(C(F)(F)F)C2)c2ccccc12)NCC(F)(F)F (centres unmarked) [Compound B]', 15.5);
